src = ChEMBL document CHEMBL3507680

# experimental.protocol: Human HepG2 cell viability assay in 384 well format
# Assay type: toxicity, cell-based
# Design: dose 125 nL, time 70.5 hour; concentration not given beside the values
# condition.context: HepG2 cells, read-out: Inhibition
metric: cytotoxicity at 70.5 h (%)
Report the figure in % without appending any unit label.

Incoming: Recorded cytotoxicity at 70.5 h of `Cc1nc(CN2C[C@H]3C[C@H](C(=O)NCC4CC4)N(C)[C@H]3C2)cs1` , please.
Outgoing: 9.54

Incoming: Tell me the measured cytotoxicity at 70.5 h of `CCCc1ccc(CN2CCC3(CC2)CNC(=O)C3)o1` , please.
Outgoing: 21.8

Incoming: Which cytotoxicity at 70.5 h is reported for this compound? CCc1cnc(N2C[C@H]3CCCC(N(C)Cc4ccccn4)[C@H]3C2)nc1 (some centres undefined)
Outgoing: -10.1

Incoming: Record request: cytotoxicity at 70.5 h value, item `CCNC(=O)N1CCC2(CC1)CCn1c(C3CC3)cnc12`
Outgoing: 30.6

Incoming: Can you look up the measured cytotoxicity at 70.5 h of `NC(=O)COc1ccc(CN2CCC3(CC2)[C@H](O)C[C@@H]3O)cc1Cl` for me?
Outgoing: 19.2

Incoming: // cytotoxicity at 70.5 h lookup, key: `COC(=O)N1CCC2(CC1)N=C(CCC(C)C)NC2=O`
Outgoing: -8.4

Incoming: I have this compound here, CC1CN(CC2CCCC2)CCN1c1ccc2nncn2n1 (centres undefined) , and I need its recorded cytotoxicity at 70.5 h.
Outgoing: 4.49

Incoming: I'd like to know its cytotoxicity at 70.5 h. The compound in question is `Cc1csc(N2CCCN(C(=O)Cn3cncn3)CC2)n1`
Outgoing: -2.46

Incoming: Which cytotoxicity at 70.5 h reading was recorded for the compound `CN1N=C(C(=O)N2CCN(c3ncccn3)CC2)CCC1=O` ?
Outgoing: 1.03

Incoming: # lookup: cytotoxicity at 70.5 h of `Cc1nn(C)c(C)c1C(=O)N1CCN(C(=O)CCC2CCCCC2)CC1`
Outgoing: -13.4

Incoming: Can you look up the measured cytotoxicity at 70.5 h of Cc1nc(CNCC(C)c2nc3ccccc3o2)cs1 (centres undefined) for me?
Outgoing: 0.552

Incoming: Fill in the blank: the reported cytotoxicity at 70.5 h of `O=C(CN1CCCNC1=O)Nc1ccccc1C(=O)C1CCCC1` is ____.
Outgoing: -0.928

Incoming: Value lookup for cytotoxicity at 70.5 h; key = `CCOc1ncnc2c1CCN(Cc1csc(C)n1)CC2`
Outgoing: 18.8

Incoming: Which value of cytotoxicity at 70.5 h has been reported for `c1ccc(CN2C[C@@H]3CC[C@H](C2)N(Cc2nnc(C4CC4)o2)C3)cc1` in the records?
Outgoing: -8.78

Incoming: I'd like to know its cytotoxicity at 70.5 h. The compound in question is `CCOc1ccc(-c2cc(=O)n3c(n2)CCCCC3)cc1`
Outgoing: -5.56

Incoming: Data request, read-out cytotoxicity at 70.5 h, for `CC(C)CCc1n[nH]c(C(=O)O)c1Br`
Outgoing: -7.1

Incoming: Returns the measured cytotoxicity at 70.5 h for the input compound. Input: Cc1cc(NC(=O)CN2CCCC2c2noc(C)n2)n(C(C)(C)C)n1 (centres undefined)
Outgoing: -7.96

Incoming: // cytotoxicity at 70.5 h lookup, key: `Cc1cc(N2CCCC2)c(C#N)c(C)n1`
Outgoing: 17.6

Incoming: What cytotoxicity at 70.5 h value was documented for this compound, `Cc1ccc(C(=O)N2CC[C@H]3[C@@H]2CCC(=O)N3c2ccccc2)cn1` ?
Outgoing: -12.4

Incoming: Consider the compound shown here: COc1ccc(C(=O)C2CCCN(Cc3cc(C)n[nH]3)C2)c(OC)c1 (centres undefined) What is its recorded cytotoxicity at 70.5 h?
Outgoing: -5.48

Incoming: So what does the record say about cytotoxicity at 70.5 h for `CCOc1cccc2c1OCC(C(=O)NS(=O)(=O)c1ccc(Cl)s1)=C2` ?
Outgoing: -7.24

Incoming: Tell me the measured cytotoxicity at 70.5 h of `CC(C)c1ccc(OCC(=O)N(C)C)cc1` , please.
Outgoing: -9.35

Incoming: Any idea what cytotoxicity at 70.5 h was measured for `Cc1nnc2n1CCN(C(=O)c1ccnc(N(C)C)c1)C2` ?
Outgoing: 6.98

Incoming: Field request: cytotoxicity at 70.5 h | item: `CCOC1CCN(CCc2nc(-c3cccc(Cl)c3)no2)CC1`
Outgoing: 16.1
